# Test system: E. coli TESEC Mtb Asd
# experiment notes: growth (OD600 after 10 h); higher = more growth (less inhibition)
# test parameters: arabinose induction (level): High; compound 0.1 mM; raw OD600 reference: median of DMSO wells 0.331, cell-free background 0.041
Structures can show the parent of a compound that is named as a salt.
// reported growth for each item listed

# compound, growth
data = [
    ("CCN(CC)CC(=O)Nc1c(C)cccc1C [Lidocaine hydrochloride]", 0.267),
    ("CCCCCCNC(=O)n1cc(F)c(=O)[nH]c1=O", 0.235),
    ("O=C(O)c1cn(-c2ccc(F)cc2)c2cc(N3CCNCC3)c(F)cc2c1=O", 0.0475),
    ("C=CC(N)CCC(=O)O (configuration not stated)", 0.313),
    ("Nc1nc(NC2CC2)c2ncn([C@H]3C=C[C@@H](CO)C3)c2n1 [Abacavir Sulfate]", 0.317),
    ("Clc1ccc(COC(Cn2ccnc2)c2ccc(Cl)cc2Cl)cc1 (configuration not stated) [Econazole nitrate]", 0.0469),
    ("CCOC(=O)NNc1nncc2ccccc12 [Todralazine hydrochloride]", 0.361),
    ("CN[C@@H]1[C@H](O[C@H]2[C@H](O[C@H]3[C@H](O)[C@@H](O)[C@H](N=C(N)N)[C@@H](O)[C@@H]3N=C(N)N)O[C@@H](C)[C@]2(O)C=O)O[C@@H](CO)[C@H](O)[C@H]1O [Streptomycin sulfate]", 0.0611),
    ("CCOc1ccc(Cc2nccc3cc(OCC)c(OCC)cc23)cc1OCC [Ethaverine hydrochloride]", 0.228),
    ("O=C(Nc1ccccc1)OCC(CN1CCCCC1)OC(=O)Nc1ccccc1 (configuration not stated) [Diperodon hydrochloride]", 0.235),
    ("CC1(C)O[C@@H]2C[C@H]3[C@@H]4C[C@H](F)C5=CC(=O)C=C[C@]5(C)[C@H]4[C@@H](O)C[C@]3(C)[C@]2(C(=O)CO)O1 [Flunisolide]", 0.342),
    ("COc1cc(Cc2cnc(N)nc2N)cc(OC)c1OC", 0.0958),
    ("COc1cc(C(=O)N2CCOCC2)cc(OC)c1OC", 0.288),
    ("CO/N=C(\\C(=O)N[C@@H]1C(=O)N2C(C(=O)OC(C)OC(C)=O)=C(COC(N)=O)CS[C@H]12)c1ccco1 (some centres not stated)", 0.246),
    ("CN(CCOc1ccc(CC2SC(=O)NC2=O)cc1)c1ccccn1 (configuration not stated) [Rosiglitazone Hydrochloride]", 0.184),
    ("O=C1C(=O)c2ccccc2C(O)=C1C1CCC(c2ccc(Cl)cc2)CC1 (configuration not stated)", 0.271),
    ("O=C(CCCN1CCN(c2ccccn2)CC1)c1ccc(F)cc1", 0.217),
]

---

# System: E. coli TESEC Mtb Alr
# experiment notes: growth (OD600 after 10 h); higher = more growth (less inhibition)
# test parameters: arabinose 1000000 nM; compound 0.1 mM; raw OD600 reference: median of DMSO wells 0.193, cell-free background 0.041
Counter-ions that a name gives are not always drawn.
// reported growth for each item listed

# compound, growth
records = [
    ("CC[N+](C)(CC)CCC[n+]1c(-c2ccccc2)c2cc(N)ccc2c2ccc(N)cc21 [Propidium iodide]", 0.0816),
    ("Cc1cc(NC(=O)C2=C(O)c3ccccc3S(=O)(=O)N2C)no1 [Isoxicam]", 0.184),
    ("NS(=O)(=O)c1cc2c(cc1C(F)(F)F)NC(Cc1ccccc1)NS2(=O)=O (stereo not drawn) [Bendroflumethiazide]", 0.162),
    ("O=C(Cn1ccnc1[N+](=O)[O-])NCCO [Etanidazole]", 0.178),
    ("O=C1[C@H]2CCCC[C@H]2C(=O)N1CCCCN1CCN(c2nsc3ccccc23)CC1 [Perospirone]", 0.103),
    ("Cc1ncc(C[n+]2csc(CCO)c2C)c(N)n1 [Thiamine hydrochloride]", 0.185),
    ("CC(=O)[C@H]1CC[C@H]2[C@@H]3C=CC4=CC(=O)CC[C@@]4(C)[C@@H]3CC[C@]12C [Dydrogesterone]", 0.0856),
    ("C[C@H](CCC(=O)O)[C@H]1CC[C@H]2[C@@H]3[C@@H](O)C[C@@H]4C[C@H](O)CC[C@]4(C)[C@H]3CC[C@]12C [Urosiol]", 0.112),
]

---

# Tested on: E. coli TESEC Mtb Alr
# experiment notes: growth (OD600 after 10 h); higher = more growth (less inhibition)
# test parameters: arabinose 1000000 nM; compound 0.1 mM; raw OD600 reference: median of DMSO wells 0.193, cell-free background 0.041
Counter-ions that a name gives are not always drawn.
metric name: growth

# compound, measurement
measured = [
    ("CO/N=C(\\C(=O)N[C@@H]1C(=O)N2C(C(=O)O)=C(C[N+]3(C)CCCC3)CS[C@H]12)c1csc(N)n1 [Cefepime hydrochloride]", 0.0612),
    ("CC=CC(=O)N(CC)c1ccccc1C [Crotamiton]", 0.181),
    ("CN1[C@@H]2CC[C@H]1C[C@@H](OC(=O)c1c[nH]c3ccccc13)C2 [Tropisetron HCl]", 0.177),
    ("CC1CCc2cc(F)cc3c(=O)c(C(=O)O)cn1c23 (centres undefined) [Flumequine]", 0.0416),
    ("COc1c(O[C@@H]2O[C@H](CO)[C@@H](O)[C@H](O)[C@H]2O)cc2c(c1OC)-c1ccc(SC)c(=O)cc1[C@@H](NC(C)=O)CC2 [Thiocolchicoside]", 0.186),
    ("CC(=O)OCC1=C(C(=O)O)N2C(=O)[C@@H](NC(=O)Cc3cccs3)[C@H]2SC1 [Cephalothin sodium salt]", 0.172),
    ("COC(=O)Nc1nc2cc(C(=O)c3cccs3)ccc2[nH]1 [Nocodazole]", 0.185),
    ("CC(=O)c1ccc(S(=O)(=O)NC(=O)NC2CCCCC2)cc1 [Acetohexamide]", 0.162),
    ("CCCCC(=O)O[C@H]1CC[C@H]2[C@@H]3CCc4cc(O)ccc4[C@H]3CC[C@]12C [Estradiol Valerate]", 0.221),
    ("Clc1cccc(Cl)c1NC1=NCCN1 [Clonidine hydrochloride]", 0.173),
    ("NS(=O)(=O)c1cc2c(cc1C(F)(F)F)NCNS2(=O)=O [Hydroflumethiazide]", 0.176),
    ("C#CCN[C@@H]1CCc2ccccc21 [Rasagiline]", 0.194),
    ("O=C1C(O)=C(O)C(=O)C(O)=C1O [Tetrahydroxy-1,4-quinone hydrate]", 0.157),
    ("CC(C)(S)C(N)C(=O)O (racemic) [D,L-Penicillamine]", 0.187),
    ("C[C@@H]1CN(c2c(F)c(N)c3c(=O)c(C(=O)O)cn(C4CC4)c3c2F)C[C@H](C)N1 [Sparfloxacin]", 0.04),
    ("CN1CCN2c3ncccc3Cc3ccccc3C2C1 (centres undefined) [Mirtazapine]", 0.182),
    ("COCCc1ccc(OCC(O)CNC(C)C)cc1 (racemic) [Metoprolol-(+,-) (+)-tartrate salt]", 0.199),
    ("C[C@]12CC[C@@H]3c4ccc(OS(=O)(=O)O)cc4CC[C@H]3[C@@H]1CCC2=O [Estropipate]", 0.151),
    ("Cn1c(=O)c2c(ncn2CCO)n(C)c1=O [Etofylline]", 0.195),
    ("C[C@H](CCC(=O)O)[C@H]1CC[C@H]2[C@@H]3CC[C@@H]4C[C@H](O)CC[C@]4(C)[C@H]3CC[C@]12C [Lithocholic acid]", 0.169),
    ("Cc1cc(-n2c(=O)[nH]c(=O)n(C)c2=O)ccc1Oc1ccc(SC(F)(F)F)cc1 [Toltrazuril]", 0.0576),
    ("CCN(Cc1ccncc1)C(=O)C(CO)c1ccccc1 (centres undefined) [Tropicamide]", 0.174),
    ("C[C@H](CCC(=O)O)[C@H]1CC[C@H]2[C@@H]3[C@H](O)C[C@@H]4C[C@H](O)CC[C@]4(C)[C@H]3CC[C@]12C [Chenodiol]", 0.146),
    ("Cc1oncc1C(=O)Nc1ccc(C(F)(F)F)cc1 [Leflunomide]", 0.106),
    ("Cc1noc(NS(=O)(=O)c2ccc(N)cc2)c1C [Sulfisoxazole]", 0.12),
    ("Nc1ccccc1S(N)(=O)=O [2-Aminobenzenesulfonamide]", 0.187),
    ("CCOC(=O)Nc1ccc2c(c1)N(C(=O)CCN1CCOCC1)c1ccccc1S2 [Moricizine hydrochloride]", 0.11),
    ("C=CCSCC1Nc2cc(Cl)c(S(N)(=O)=O)cc2S(=O)(=O)N1 (centres undefined) [Althiazide]", 0.183),
    ("CCN(CC)CCCC(C)Nc1ccnc2cc(Cl)ccc12 (centres undefined) [Chloroquine diphosphate]", 0.176),
    ("C1N2CN3CN1CN(C2)C3 [Methenamine]", 0.226),
    ("OCC(O)CN1CCN(c2ccccc2)CC1 (racemic) [Dropropizine (R,S)]", 0.174),
    ("CC(C)(C)c1ccc(C(O)CCCN2CCC(C(O)(c3ccccc3)c3ccccc3)CC2)cc1 (centres undefined) [Terfenadine]", 0.136),
    ("CC(=O)[C@@]12O[C@](C)(c3ccccc3)O[C@@H]1C[C@H]1[C@@H]3CCC4=CC(=O)CC[C@]4(C)[C@H]3CC[C@@]12C [Algestone acetophenide]", 0.115),
    ("O=C(O)c1cc(/N=N/c2ccc(S(=O)(=O)Nc3ccccn3)cc2)ccc1O [Sulfasalazine]", 0.169),
]
